Cited source: ChEMBL document CHEMBL1145498

Target protein (sequence): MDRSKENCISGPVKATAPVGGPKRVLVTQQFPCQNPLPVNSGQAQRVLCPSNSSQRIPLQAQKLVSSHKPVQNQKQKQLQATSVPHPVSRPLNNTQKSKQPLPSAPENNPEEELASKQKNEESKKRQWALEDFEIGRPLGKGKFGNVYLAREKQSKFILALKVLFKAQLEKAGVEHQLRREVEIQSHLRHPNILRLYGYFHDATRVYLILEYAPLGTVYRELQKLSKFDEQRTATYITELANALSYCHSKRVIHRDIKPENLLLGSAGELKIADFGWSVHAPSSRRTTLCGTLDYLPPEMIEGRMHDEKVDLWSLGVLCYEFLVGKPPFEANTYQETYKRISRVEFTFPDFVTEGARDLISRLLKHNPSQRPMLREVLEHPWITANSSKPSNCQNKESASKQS
pIC50: −log10 of the molar value.
MEASURED_ENDPOINT: pIC50

1) COc1cc2ncnc(Nc3ccc(NC(=O)c4ccccc4)cc3)c2cc1OC :: 6.51
